# targetDesc: T1, recombinant human IGF-II (Insulin-like Growth Factor II) (human, UniProt P01344 25-91, biotinylated (Biotinyl-IGF-II, GroPep) where immobilised in SPR, site not stated; not biotinylated in ITC and as SPR analyte)
# T1 construct: also called IGF2; IGF-2
# T1 sequence (P01344 25-91 limits assumed): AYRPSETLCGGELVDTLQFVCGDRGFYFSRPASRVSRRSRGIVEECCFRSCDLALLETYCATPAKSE
# assayOverview: SPR, steady-state KD relative to wild type
I'd be grateful if you could share measured Relative Affinity for these entries.

# example entries with known answers
>>> val("IGF2R domain 11 with asparagine at position 1544 (E1544N) (receptor) NEHDDCQVTNPSTGHLFDLSSLSGRAGFTAAYSNKGLVYMSICGENENCPPGVGACFGQTRISVGKANKRLRYVDQVLQLVYKDGSPCPSKSGLSYKSVISFVCRPEAGPTNRPMLISLDKQTCTLFFSWHTPLACEQATHHHHHH")
"0.88 fold (wild type = 1.00)"
>>> val("IGF2R domain 11 with tryptophan at position 1544 (E1544W) (receptor) NEHDDCQVTNPSTGHLFDLSSLSGRAGFTAAYSWKGLVYMSICGENENCPPGVGACFGQTRISVGKANKRLRYVDQVLQLVYKDGSPCPSKSGLSYKSVISFVCRPEAGPTNRPMLISLDKQTCTLFFSWHTPLACEQATHHHHHH")
"1.94 fold (wild type = 1.00)"

Batch request: Relative Affinity per item, same order as input.
1. IGF2R domain 11 with phenylalanine at position 1544 (E1544F) (receptor) NEHDDCQVTNPSTGHLFDLSSLSGRAGFTAAYSFKGLVYMSICGENENCPPGVGACFGQTRISVGKANKRLRYVDQVLQLVYKDGSPCPSKSGLSYKSVISFVCRPEAGPTNRPMLISLDKQTCTLFFSWHTPLACEQATHHHHHH
2. IGF2R domain 11 E1544V (amino acids 1511-1650, C-terminal His6 tag, from Pichia pastoris) (receptor) NEHDDCQVTNPSTGHLFDLSSLSGRAGFTAAYSVKGLVYMSICGENENCPPGVGACFGQTRISVGKANKRLRYVDQVLQLVYKDGSPCPSKSGLSYKSVISFVCRPEAGPTNRPMLISLDKQTCTLFFSWHTPLACEQATHHHHHH
3. IGF2R domain 11 with leucine at position 1544 (E1544L) (receptor) NEHDDCQVTNPSTGHLFDLSSLSGRAGFTAAYSLKGLVYMSICGENENCPPGVGACFGQTRISVGKANKRLRYVDQVLQLVYKDGSPCPSKSGLSYKSVISFVCRPEAGPTNRPMLISLDKQTCTLFFSWHTPLACEQATHHHHHH

Resp:
1: 1.83 fold (wild type = 1.00); 2: 1.96 fold (wild type = 1.00); 3: 2.02 fold (wild type = 1.00)
